system: AKT phosphorylation; experiment: In vitro test of the inhibition effect on AKT phosphorylation (ELISA, Ramos cells); assay type: cell-based; conditions: Homo sapiens, Ramos, Ramos cell line, compound 1 hour, goat anti-human IgM 10 ug/ml for 10 minutes, Phospho-AKT 1/2/3 (ser473) ELISA; read-out: Inhibit AKT phosphorylation IC50
IC50 listing for selected molecules.
Hi, when you answer, please include the unit after the number. Thanks!

Cn1c(=O)c(Nc2ccc(N3CCS(=O)(=O)CC3)cc2)nc2ccc(-c3cn[nH]c3)cc21 ... 52.2 nM
Cn1c(=O)c(Nc2ccc(C(C)(C)O)cn2)cc2c(F)c(-c3cc[nH]n3)ccc21 ... 63 nM

molecule Cn1c(=O)c(Nc2ccc(N3CCC[C@@H](C(=O)O)C3)cn2)cc2c(F)c(-c3cc[nH]n3)ccc21 , IC50 observed: 844 nM

molecule Cn1c(=O)c(Nc2ccccn2)cc2c(F)c(-c3cc[nH]n3)ccc21 , IC50 observed: 425 nM

# credit: patent US11091460B2
